- system-name: BSA (UniProt P02769)
- Sequence (P02769 25-607 limits assumed): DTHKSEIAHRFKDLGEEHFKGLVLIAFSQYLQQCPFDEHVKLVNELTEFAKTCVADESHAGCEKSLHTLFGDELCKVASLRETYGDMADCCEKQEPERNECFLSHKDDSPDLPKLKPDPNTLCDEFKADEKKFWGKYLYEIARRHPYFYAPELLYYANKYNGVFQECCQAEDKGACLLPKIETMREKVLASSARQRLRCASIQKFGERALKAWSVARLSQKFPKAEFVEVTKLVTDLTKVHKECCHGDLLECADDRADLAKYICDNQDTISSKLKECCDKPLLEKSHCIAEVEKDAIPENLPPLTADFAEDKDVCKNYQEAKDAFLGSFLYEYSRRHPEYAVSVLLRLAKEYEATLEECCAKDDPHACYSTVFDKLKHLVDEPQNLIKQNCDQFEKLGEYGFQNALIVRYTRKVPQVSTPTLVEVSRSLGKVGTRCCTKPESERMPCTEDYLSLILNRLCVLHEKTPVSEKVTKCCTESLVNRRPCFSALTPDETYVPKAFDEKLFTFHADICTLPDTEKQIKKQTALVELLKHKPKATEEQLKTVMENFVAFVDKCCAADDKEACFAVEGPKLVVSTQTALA
- test-summary: scFv ELISA
metric: OD450 (OD450)
Report the value in OD450 with no unit label.

{"binder": "PcOxP_DB01_E06 (scFv, V domains shown, scFv in periplasmic extract) VH: EVQLLESGGGLVQPGGSLRLSCAASGFTFSDQYMEWVRQAPGKGLEWVAASRNKANDYTTEYADSVKGRFTISRDNSKNTLYLQMNSLRAEDTAVYYCARDYYGSSYWYFDLWGQGTLVTVSS VL: DIQMTQSPSSLSASVGDRVTITCTASESLYSSKHKVHYVAWYQQKPGKAPKLLIYGASNRYIGVPSRFSGSGSGTDFTLTISSLQPEDFATYYCAQFYYYPLTFGGGTKVEIK", "metric": "OD450", "u": "OD450", "value": 0.09}
{"binder": "PcOxP_DB01_G12 (scFv, V domains shown, scFv in periplasmic extract) VH: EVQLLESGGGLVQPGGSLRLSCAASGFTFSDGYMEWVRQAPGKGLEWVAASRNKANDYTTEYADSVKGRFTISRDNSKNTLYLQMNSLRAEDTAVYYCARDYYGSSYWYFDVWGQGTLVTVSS VL: DIQMTQSPSSLSASVGDRVTITCTASESLYSSKHKVHYLAWYQQKPGKAPKLLIYGASNRYFGVPSRFSGSGSGTDFTLTISSLQPEDFATYYCAQFYSYPLTFGGGTKVEIK", "metric": "OD450", "u": "OD450", "value": 0.09}
{"binder": "PcOxP_DB01_A05 (scFv, V domains shown, scFv in periplasmic extract) VH: EVQLLESGGGLVQPGGSLRLSCAASGFTFSDYYMEWVRQAPGKGLEWVAASRNKANDYTTEYADSVKGRFTISRDNSKNTLYLQMNSLRAEDTAVYYCARDYYGNSYWYFDVWGQGTLVTVSS VL: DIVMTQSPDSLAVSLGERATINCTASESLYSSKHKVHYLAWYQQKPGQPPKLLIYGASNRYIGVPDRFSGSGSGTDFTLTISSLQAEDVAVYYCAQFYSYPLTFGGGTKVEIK", "metric": "OD450", "u": "OD450", "value": 0.06}
{"binder": "PcOxP_DB03_H09 (scFv, V domains shown, scFv in periplasmic extract) VH: EVQLLESGGGLVQPGGSLRLSCAASGFTFSDAYMEWVRQAPGKGLEWVAASRNKANSYTTEYADSVKGRFTISRDNSKNTLYLQMNSLRAEDTAVYYCARDYYGSSYWYFDVWGQGTLVTVSS VL: DIQMTQSPSSLSASVGDRVTITCTASESLYSSKHKVHYLAWYQQKPGKAPKLLIYGASNRYIGVPSRFSGSGSGTDFTLTISSLQPEDFATYYCAEFYSYPLTFGGGTKVEIK", "metric": "OD450", "u": "OD450", "value": 0.11}

*Q* Please give the documented OD450 of PcOxP_DB02_B04 (scFv, V domains shown, scFv in periplasmic extract) VH: EVQLLESGGGLVQPGGSLRLSCAASGFTFSDYYMEWVRQAPGKGLEWVAASRNKWNDYTTEYADSVKGRFTISRDNSKNTLYLQMNSLRAEDTAVYYCARDYYGSSYWYFDVWGQGTLVTVSS VL: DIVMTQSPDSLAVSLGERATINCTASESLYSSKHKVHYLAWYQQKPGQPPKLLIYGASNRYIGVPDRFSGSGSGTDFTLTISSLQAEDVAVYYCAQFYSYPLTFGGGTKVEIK
*A* 0.08
